Listing of recorded pIC50 by entry.
tested on: human melanoma cell line SKMEL-28; assay: Antiproliferation assay, 72 hrs under air, Alamar Blue; type: cell-based
pIC50: −log10 of the molar value.

compound	comparative sign	pIC50
CCc1c2c(nc3ccc(O)cc13)-c1cc3c(c(=O)n1C2)COC(=O)[C@]3(O)CC [SN-38, reference compound]	=	5.00
CC[C@@]1(O)C(=O)OCc2c1cc1n(c2=O)Cc2cc3c(CN(C)C)c(O)ccc3nc2-1 [Topotecan, reference compound]	<	5.00

----------
Measured IC90 of individual entries
assay: Bone marrow progenitor cell clonogenic assay (CFU-GM), human; settings: human

substance smiles	IC90 [nM]
CCc1c2c(nc3ccccc13)-c1c(NC=O)c3c(c(=O)n1C2)COC(=O)[C@]3(O)CC	650
CC[C@@]1(O)C(=O)OCc2c1c(N)c1n(c2=O)Cc2cc3ccccc3nc2-1	1100
CCc1c2c(nc3ccccc13)-c1c(N)c3c(c(=O)n1C2)COC(=O)[C@]3(O)CC	650
CC[C@@]1(O)C(=O)OCc2c1c(N)c1n(c2=O)Cc2cc3c(N)cccc3nc2-1	210
